# procedure_text: blood plasma concentration of veliparib against time, immediate release 400 mg twice a day
# Format: in vivo
# test_settings: plasma, po, 400 mg, 10 x 40 mg twice a day, daily dose 800 mg

- compound: "C[C@]1(c2nc3c(C(N)=O)cccc3[nH]2)CCCN1 [veliparib]"
  Cmax: "~3500 ng/mL"
